Cited source: ChEMBL document CHEMBL3351268

Target: 3',5'-cyclic-AMP phosphodiesterase 4D (Homo sapiens, UniProt Q08499)
Sequence (Q08499 whole entry): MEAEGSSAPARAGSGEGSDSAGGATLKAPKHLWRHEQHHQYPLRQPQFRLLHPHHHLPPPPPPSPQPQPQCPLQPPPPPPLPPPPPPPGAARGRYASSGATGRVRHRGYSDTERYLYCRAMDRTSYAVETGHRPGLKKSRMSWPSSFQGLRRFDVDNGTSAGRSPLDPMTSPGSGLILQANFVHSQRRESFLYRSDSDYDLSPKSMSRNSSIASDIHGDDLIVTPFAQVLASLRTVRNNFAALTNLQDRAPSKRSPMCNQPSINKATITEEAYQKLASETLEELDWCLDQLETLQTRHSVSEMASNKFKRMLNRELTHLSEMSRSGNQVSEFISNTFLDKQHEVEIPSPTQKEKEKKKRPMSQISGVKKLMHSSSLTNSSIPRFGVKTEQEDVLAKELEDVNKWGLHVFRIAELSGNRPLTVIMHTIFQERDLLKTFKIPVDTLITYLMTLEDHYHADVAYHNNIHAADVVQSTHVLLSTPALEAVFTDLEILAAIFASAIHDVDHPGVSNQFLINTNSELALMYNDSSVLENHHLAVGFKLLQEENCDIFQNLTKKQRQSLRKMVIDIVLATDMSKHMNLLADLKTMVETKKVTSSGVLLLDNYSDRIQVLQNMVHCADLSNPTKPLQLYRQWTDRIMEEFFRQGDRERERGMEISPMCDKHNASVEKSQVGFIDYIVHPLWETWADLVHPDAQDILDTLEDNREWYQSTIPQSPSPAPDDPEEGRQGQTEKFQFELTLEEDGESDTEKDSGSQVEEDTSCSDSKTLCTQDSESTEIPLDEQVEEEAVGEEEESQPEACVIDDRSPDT
Test: Inhibition of recombinant human PDE4D3 expressed in baculoviral system at 10 uM
assayReadout: inhibition (%)

Past entries and their recorded results:
COc1ccc(C(=O)NN2CC(C)OC(C)C2)cc1OC1CCCC1 (stereo unspecified) : 0
COc1ccc(CCC(=O)N2CC(C)OC(C)C2)cc1OC1CCCC1 (stereo unspecified) : 10
COc1ccc(CCC(=O)N2CCC(O)CC2)cc1OC1CCCC1 : 12
COc1ccc(/C=N/OCCC(=O)N2CC(C)OC(C)C2)cc1OC1CCCC1 (stereo unspecified) : 24
COc1ccc(C(=O)N2CCOCC2)cc1OC1CCCC1 : 45

[1] COc1ccc(/C=C/C(=O)N2CCOCC2)cc1OC1CCCC1
[2] COc1ccc(/C=N/OCC(O)CN2CCC(O)CC2)cc1OC1CCCC1 (stereo unspecified)
[3] COc1ccc(CCC(=O)N2CCOCC2)cc1OC1CCCC1
Prompt line: // ranking: key=inhibition, reverse=True Please list the labels in the order you were asked to rank them.
Response line: 2, 1, 3
(2: 65%, 1: 25%, 3: 7%)

[P] COc1ccc(C(=O)NN2CCOCC2)cc1OC1CCCC1
[Q] COc1ccc(/C=C/C(=O)N2CC(C)OC(C)C2)cc1OC1CCCC1 (stereo unspecified)
Prompt line: Of P and Q , whose reported inhibition is the larger number? Give the label of your selection.
Response line: P

====

Target: 3',5'-cyclic-AMP phosphodiesterase 4A (Homo sapiens) (UniProt P27815)
Sequence (P27815 whole entry): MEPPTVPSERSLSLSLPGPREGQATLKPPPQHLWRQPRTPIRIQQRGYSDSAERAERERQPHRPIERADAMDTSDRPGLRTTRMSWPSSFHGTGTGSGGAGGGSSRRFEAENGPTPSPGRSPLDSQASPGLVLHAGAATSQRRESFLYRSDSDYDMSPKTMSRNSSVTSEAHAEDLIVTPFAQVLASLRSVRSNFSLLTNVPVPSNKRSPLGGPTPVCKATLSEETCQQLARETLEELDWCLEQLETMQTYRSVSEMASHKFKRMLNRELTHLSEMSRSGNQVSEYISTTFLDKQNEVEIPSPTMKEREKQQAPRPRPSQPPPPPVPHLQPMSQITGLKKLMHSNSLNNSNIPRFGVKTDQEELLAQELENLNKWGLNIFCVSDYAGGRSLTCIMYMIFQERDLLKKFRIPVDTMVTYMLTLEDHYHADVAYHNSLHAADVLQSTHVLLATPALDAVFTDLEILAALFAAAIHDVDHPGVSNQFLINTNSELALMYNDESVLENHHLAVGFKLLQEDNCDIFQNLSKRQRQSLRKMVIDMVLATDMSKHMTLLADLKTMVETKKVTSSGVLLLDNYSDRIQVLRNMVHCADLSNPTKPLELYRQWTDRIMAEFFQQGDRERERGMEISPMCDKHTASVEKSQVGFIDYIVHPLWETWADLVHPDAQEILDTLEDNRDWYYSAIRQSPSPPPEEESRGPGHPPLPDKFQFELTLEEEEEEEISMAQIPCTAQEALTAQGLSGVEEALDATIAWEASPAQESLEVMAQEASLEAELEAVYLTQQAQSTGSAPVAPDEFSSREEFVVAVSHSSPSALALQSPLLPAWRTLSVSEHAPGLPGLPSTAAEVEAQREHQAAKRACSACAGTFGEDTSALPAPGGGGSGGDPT
Test: Inhibition of PDE4A4 (unknown origin) at 10 uM
assayReadout: inhibition (%)

Past entries and their recorded results:
COc1ccc(/C=N/N2CCOCC2)cc1OC1CCCC1 : 41
COc1ccc(/C=N/N2CC(C)OC(C)C2)cc1OC1CCCC1 (stereo not given) : 29
COc1ccc(/C=N/OCC(O)CNN2CCOCC2)cc1OC1CCCC1 (stereo not given) : 33

[a] COc1ccc(/C=N/OCC(O)CNN2CC(C)OC(C)C2)cc1OC1CCCC1 (stereo not given)
[b] COc1ccc(/C=N/OCC(O)CN2CCC(O)CC2)cc1OC1CCCC1 (stereo not given)
Prompt line: Of a and b , whose reported inhibition is the larger number? Give the label of your selection.
Response line: a

====

Target: 3',5'-cyclic-AMP phosphodiesterase 4D (Homo sapiens)
Assay: Inhibition of PDE4D2 (unknown origin) at 10 uM
assayReadout: inhibition (%)

Past entries and their recorded results:
COc1ccc(/C=N/N2CC(C)OC(C)C2)cc1OC1CCCC1 (stereo not given) : 53
COc1ccc(/C=N/N2CCOCC2)cc1OC1CCCC1 : 62

[1] COc1ccc(/C=N/OCC(O)CNN2CC(C)OC(C)C2)cc1OC1CCCC1 (stereo not given)
[2] COc1ccc(C(=O)N2CC(C)OC(C)C2)cc1OC1CCCC1 (stereo not given)
[3] COc1ccc(C(=O)NN2CCOCC2)cc1OC1CCCC1
Prompt line: # ascending order, key=inhibition Please list the labels in the order you were asked to rank them.
Response line: 2, 3, 1
(2: 9%, 3: 32%, 1: 74%)

====

Target: 3',5'-cyclic-AMP phosphodiesterase 4B (Homo sapiens, UniProt Q07343)
Sequence (Q07343 whole entry): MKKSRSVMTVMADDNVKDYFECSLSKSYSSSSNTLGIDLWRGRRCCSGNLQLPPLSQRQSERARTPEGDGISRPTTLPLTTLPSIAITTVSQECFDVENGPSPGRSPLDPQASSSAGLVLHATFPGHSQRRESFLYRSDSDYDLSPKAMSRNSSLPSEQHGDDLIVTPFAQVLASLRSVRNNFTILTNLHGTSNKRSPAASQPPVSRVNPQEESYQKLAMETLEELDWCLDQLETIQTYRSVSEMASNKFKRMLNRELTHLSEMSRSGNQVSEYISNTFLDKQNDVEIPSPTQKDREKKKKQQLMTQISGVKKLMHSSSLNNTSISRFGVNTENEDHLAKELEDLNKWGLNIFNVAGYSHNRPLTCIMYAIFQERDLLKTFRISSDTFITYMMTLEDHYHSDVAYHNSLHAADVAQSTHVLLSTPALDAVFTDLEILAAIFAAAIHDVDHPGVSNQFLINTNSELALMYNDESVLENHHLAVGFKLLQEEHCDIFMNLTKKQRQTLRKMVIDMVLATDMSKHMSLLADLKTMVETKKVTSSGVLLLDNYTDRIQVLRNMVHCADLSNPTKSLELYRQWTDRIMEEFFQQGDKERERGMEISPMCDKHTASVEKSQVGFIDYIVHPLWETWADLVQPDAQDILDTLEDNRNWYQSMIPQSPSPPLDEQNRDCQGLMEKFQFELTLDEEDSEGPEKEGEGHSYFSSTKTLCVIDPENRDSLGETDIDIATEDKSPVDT
assayReadout: IC50 (µM)
Respond with the bare value in µM.

Prompt line: State its IC50 for this molecule: COc1ccc(/C=N/OCC(O)CNN2CC(C)OC(C)C2)cc1OC1CCCC1 (stereo unspecified)
Response line: 18
